Biological target: human serotonin transporter (Homo sapiens)
Sequence (P31645 whole entry): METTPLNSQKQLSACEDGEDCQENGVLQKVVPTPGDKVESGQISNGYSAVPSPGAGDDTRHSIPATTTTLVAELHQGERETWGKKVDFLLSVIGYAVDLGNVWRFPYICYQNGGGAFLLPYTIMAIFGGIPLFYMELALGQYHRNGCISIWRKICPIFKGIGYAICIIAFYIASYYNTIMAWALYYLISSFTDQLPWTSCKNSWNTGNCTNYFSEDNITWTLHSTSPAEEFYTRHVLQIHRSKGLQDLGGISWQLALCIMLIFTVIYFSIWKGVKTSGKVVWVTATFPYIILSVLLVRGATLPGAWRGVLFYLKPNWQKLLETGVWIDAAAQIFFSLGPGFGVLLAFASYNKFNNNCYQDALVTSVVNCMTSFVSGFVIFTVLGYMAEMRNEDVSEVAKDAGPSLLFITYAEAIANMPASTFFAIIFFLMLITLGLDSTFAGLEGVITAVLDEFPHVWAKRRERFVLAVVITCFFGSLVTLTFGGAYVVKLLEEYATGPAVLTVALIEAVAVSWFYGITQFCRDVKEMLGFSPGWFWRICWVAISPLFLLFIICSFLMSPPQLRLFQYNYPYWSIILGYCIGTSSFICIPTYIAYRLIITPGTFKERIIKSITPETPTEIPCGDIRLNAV
parameter: Ki (µM)
Give the value, in units of µM, as a plain number.

Recorded result, `COc1ccc(NC(=O)N2CCNC[C@@H]2COc2cccnc2)cc1` , Ki: 1.8

----------
Molecular target: α4β2 nAChR (Rattus norvegicus, UniProt P09483+P12390)
Construct: tissue Cerep
Sequence (P09483 31-630): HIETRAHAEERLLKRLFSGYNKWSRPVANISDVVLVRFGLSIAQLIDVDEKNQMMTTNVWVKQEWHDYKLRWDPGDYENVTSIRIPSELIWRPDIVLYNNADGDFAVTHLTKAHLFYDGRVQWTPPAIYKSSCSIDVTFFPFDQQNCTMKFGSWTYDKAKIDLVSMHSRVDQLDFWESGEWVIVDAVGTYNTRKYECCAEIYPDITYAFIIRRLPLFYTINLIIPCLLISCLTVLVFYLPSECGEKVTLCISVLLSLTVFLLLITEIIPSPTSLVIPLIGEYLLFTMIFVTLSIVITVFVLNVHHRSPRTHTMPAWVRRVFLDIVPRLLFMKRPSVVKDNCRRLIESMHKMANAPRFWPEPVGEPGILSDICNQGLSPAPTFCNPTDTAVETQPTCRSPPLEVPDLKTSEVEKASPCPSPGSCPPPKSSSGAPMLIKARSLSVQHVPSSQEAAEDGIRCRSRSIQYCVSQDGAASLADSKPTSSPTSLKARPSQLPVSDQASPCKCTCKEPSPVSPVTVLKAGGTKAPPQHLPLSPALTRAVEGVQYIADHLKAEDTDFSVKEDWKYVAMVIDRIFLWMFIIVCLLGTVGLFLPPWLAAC
Sequence (P12390 25-500): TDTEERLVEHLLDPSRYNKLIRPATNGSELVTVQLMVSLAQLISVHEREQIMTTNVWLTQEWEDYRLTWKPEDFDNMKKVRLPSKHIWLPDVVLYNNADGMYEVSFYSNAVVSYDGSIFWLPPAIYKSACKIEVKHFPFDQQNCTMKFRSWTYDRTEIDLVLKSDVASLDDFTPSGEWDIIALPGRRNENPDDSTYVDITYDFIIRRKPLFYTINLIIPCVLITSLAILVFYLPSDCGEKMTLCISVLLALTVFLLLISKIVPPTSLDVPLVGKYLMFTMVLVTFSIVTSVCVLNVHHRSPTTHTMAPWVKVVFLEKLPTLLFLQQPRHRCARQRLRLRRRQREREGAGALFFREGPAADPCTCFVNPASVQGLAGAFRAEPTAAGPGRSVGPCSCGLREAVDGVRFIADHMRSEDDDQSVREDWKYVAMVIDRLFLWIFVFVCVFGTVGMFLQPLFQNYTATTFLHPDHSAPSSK
Assay: cytisine binding to rat brain membranes
Settings: read-out: Ki, α4β2nAChR binding affinity
parameter: Ki (nM)
Please reply with the bare figure in nM and do not write the unit itself.

Sure, the documented Ki for c1cncc(OC[C@@H]2CNCCN2c2nc3ncccc3o2)c1 [PMP-311] is 30

----------
Assay: pharmacokinetics in CD1 mice
Format: in vivo, mouse
Conditions: CD1, plasma; mouse, 5 mg/kg oral
Recorded Tmax, one value per entry.
Express your answer in min, writing the number without its unit.

The compound identified as `c1cncc(OC[C@@H]2CNCCN2c2nc3ncccc3o2)c1` registered its Tmax at 15

Measured Tmax of `COc1ccc(NC(=O)N2CCNC[C@@H]2COc2cccnc2)cc1` : 30

----------
Experiment: pharmacokinetics in CD1 mice
Format: in vivo, mouse
Settings: CD1, plasma; mouse, 5 mg/kg oral; read-out: %F (bioavailability)
Listed here: items and their measured bioavailability.
Answer with a number only, understood to be in %.

> print(dat)
                               smiles.entry  obs.value
1  COc1ccc(NC(=O)N2CCNC[C@@H]2COc2cccnc2)cc1         76

Recorded result, `c1cncc(OC[C@@H]2CNCCN2c2nc3ncccc3o2)c1` , bioavailability: 50

----------
Test: pharmacokinetics in CD1 mice
Assay type: in vivo, mouse
Details: CD1, plasma; mouse, 1 mg/kg IV
parameter: clearance (mL/min/kg)
Please reply with the bare figure in mL/min/kg and do not write the unit itself.

Form: molecule = c1cncc(OC[C@@H]2CNCCN2c2nc3ncccc3o2)c1 [PMP-311] ; clearance = 72

----------
Molecular target: α4β2 nAChR (Homo sapiens, UniProt P17787+P43681)
Construct: expressed in transfected cells; host or cells: Xenopus laevis oocytes injected with subunit cRNAs; clones from Dr. Jon Lindstrom
Sequence (P43681 29-627 limits assumed): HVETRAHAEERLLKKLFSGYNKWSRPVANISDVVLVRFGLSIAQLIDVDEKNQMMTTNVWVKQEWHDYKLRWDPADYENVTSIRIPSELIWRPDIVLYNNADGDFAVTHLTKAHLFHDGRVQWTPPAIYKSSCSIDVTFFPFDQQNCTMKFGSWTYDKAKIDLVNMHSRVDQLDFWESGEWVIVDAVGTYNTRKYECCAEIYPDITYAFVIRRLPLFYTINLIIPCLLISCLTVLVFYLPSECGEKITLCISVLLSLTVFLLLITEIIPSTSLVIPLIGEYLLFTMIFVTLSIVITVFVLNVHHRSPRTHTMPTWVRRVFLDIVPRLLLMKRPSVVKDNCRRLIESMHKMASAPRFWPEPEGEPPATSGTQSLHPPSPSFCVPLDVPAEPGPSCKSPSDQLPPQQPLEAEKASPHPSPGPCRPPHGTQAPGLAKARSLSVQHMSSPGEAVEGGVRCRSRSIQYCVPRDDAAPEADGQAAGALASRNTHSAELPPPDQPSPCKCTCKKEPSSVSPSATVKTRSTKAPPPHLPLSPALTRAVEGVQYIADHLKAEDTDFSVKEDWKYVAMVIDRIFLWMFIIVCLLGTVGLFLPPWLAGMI
Sequence (P17787 26-502): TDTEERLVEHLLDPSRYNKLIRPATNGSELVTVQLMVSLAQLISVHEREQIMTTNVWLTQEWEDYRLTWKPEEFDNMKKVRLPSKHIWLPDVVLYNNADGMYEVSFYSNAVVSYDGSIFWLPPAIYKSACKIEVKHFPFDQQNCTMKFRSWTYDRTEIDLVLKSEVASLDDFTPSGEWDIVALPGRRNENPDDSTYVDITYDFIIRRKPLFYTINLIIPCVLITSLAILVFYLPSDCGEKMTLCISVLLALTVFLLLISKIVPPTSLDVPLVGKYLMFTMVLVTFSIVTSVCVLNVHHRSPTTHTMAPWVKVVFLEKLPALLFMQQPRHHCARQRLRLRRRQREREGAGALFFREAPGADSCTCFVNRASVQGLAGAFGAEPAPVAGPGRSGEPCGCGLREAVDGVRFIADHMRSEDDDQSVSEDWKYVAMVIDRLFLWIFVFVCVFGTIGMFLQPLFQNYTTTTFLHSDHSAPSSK
Assay: ion channel assay on α4β2 nAChR in Xenopus oocytes
Format: biochemical
Conditions: data not shown; read-out: IC50, antagonist of α4β2 nAChR
pIC50: −log10 of the molar value.
parameter: pIC50

The measured pIC50 associated with `c1cncc(OC[C@@H]2CNCCN2c2nc3ncccc3o2)c1` reads ~7.70

----------
Reported half-life values for the following compounds.
Assay: pharmacokinetics in CD1 mice
Assay type: in vivo, mouse
Conditions: CD1, plasma; mouse, 1 mg/kg IV
State the result as a value with its unit after it.

> print(dat)
                               smiles.entry  obs.value
1  COc1ccc(NC(=O)N2CCNC[C@@H]2COc2cccnc2)cc1     39 min

Now, please, on to the next compound.
Given item `c1cncc(OC[C@@H]2CNCCN2c2nc3ncccc3o2)c1` , the value recorded as its half-life is 19 min

----------
Experiment: pharmacokinetics in CD1 mice
Format: in vivo, mouse
Settings: CD1, plasma; mouse, 1 mg/kg IV
parameter: Vd (L/kg)
Reply numerically in L/kg, unit not repeated.

> print(dat)
                               smiles.entry  parameter  reading.unit  obs.value
1  COc1ccc(NC(=O)N2CCNC[C@@H]2COc2cccnc2)cc1         Vd          L/kg       5.83

Note: attention shifts to another entry.
The recorded Vd for entry `c1cncc(OC[C@@H]2CNCCN2c2nc3ncccc3o2)c1` equals 1.94
